Numbers sourced from ChEMBL document CHEMBL5291721.

// values below are AC50; system is 5-hydroxytryptamine receptor 1A (Homo sapiens, UniProt P08908); note: assay procedure not described here
Sequence (P08908 whole entry): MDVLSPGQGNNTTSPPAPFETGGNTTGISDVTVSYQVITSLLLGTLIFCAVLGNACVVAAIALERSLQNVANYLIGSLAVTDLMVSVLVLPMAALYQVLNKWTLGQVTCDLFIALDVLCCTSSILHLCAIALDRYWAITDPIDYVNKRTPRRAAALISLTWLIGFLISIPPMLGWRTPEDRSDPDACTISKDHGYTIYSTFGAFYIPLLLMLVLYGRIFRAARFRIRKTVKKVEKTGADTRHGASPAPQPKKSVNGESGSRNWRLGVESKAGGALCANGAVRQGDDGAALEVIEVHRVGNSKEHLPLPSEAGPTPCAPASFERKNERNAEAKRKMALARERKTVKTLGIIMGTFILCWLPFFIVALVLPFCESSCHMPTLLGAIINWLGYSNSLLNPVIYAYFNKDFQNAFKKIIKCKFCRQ

{"compound": "Cc1ccccc1OCC(O)CO (stereo not drawn) [MEPHENESIN]", "AC50": "> 30 µM"}
{"compound": "CC(C)(C)CC(C)(C)c1ccc(O)c(Cc2ccc(Cl)cc2Cl)c1 [CLOFOCTOL]", "AC50": "> 30 µM"}
{"compound": "O=C(O)c1ccccc1C(=O)Nc1ccc(S(=O)(=O)Nc2nccs2)cc1 [PHTHALYLSULFATHIAZOLE]", "AC50": "> 10 µM"}

----------
# target_system: UniProt:O95342
# Sequence (O95342 whole entry): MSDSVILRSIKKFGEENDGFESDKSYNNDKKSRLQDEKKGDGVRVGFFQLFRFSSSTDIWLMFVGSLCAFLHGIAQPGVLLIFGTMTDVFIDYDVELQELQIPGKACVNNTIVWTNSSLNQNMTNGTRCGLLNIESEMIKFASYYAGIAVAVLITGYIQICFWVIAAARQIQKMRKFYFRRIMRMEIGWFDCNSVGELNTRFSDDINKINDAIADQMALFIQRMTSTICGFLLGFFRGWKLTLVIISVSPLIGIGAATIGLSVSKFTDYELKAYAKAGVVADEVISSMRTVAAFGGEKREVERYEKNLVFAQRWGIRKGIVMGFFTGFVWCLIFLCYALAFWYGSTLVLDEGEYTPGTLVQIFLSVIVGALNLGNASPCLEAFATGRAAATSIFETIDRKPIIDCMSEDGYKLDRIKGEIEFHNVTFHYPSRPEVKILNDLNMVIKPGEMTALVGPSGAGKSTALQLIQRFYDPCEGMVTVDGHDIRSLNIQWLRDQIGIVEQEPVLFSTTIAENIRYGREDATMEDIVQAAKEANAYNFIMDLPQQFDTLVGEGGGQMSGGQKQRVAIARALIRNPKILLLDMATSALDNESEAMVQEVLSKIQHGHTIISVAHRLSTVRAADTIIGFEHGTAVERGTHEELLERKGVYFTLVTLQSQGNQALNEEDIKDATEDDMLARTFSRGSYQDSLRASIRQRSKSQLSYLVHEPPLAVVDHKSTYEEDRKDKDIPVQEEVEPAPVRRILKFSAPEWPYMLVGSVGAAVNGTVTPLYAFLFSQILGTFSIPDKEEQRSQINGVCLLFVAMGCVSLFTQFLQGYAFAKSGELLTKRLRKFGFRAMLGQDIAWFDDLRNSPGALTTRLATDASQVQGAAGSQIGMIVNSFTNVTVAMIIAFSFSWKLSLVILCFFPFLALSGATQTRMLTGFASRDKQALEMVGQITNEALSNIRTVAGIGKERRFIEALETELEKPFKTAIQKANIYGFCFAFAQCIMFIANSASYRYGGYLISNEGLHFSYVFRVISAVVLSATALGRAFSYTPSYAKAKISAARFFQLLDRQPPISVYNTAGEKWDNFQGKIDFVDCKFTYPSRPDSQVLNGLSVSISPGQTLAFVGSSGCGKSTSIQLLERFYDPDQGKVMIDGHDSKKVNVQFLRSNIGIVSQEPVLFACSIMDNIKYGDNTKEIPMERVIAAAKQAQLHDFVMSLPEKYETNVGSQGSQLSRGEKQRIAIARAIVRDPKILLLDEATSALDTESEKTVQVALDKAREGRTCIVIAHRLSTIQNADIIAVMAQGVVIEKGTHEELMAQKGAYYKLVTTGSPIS
# Assay type: functional

{"compound": "COc1cc2nc(N(C)CCCNC(=O)C3CCCO3)nc(N)c2cc1OC (stereo not drawn)", "AC50": "> 300 µM"}
{"compound": "O=P1(NCCCl)OCCCN1CCCl (stereo not drawn) [IFOSFAMIDE]", "AC50": "> 300 µM"}
{"compound": "O=C(O[C@H]1C[C@H]2CC[C@@H](C1)[N+]21CCCC1)C(O)(c1ccccc1)c1ccccc1", "AC50": "> 300 µM"}

----------
Please consider the recorded AC50 for D(1A) dopamine receptor (Homo sapiens, UniProt P21728) in what follows.
recorded_metric: AC50

{"compound": "Cc1cc(OP(=O)(O)O)c2ccccc2c1OP(=O)(O)O [MENADIOL SODIUM DIPHOSPHATE]", "value_reported": "> 30 µM"}
{"compound": "O=c1[nH]c(=O)n([C@H]2C[C@H](O)[C@@H](CO)O2)cc1F", "value_reported": "> 30 µM"}
{"compound": "Nc1nc2nc[nH]c2c(=S)[nH]1", "value_reported": "> 30 µM"}
{"compound": "Nc1ccc2cc3ccc(N)cc3nc2c1", "value_reported": "10.6 µM"}
{"compound": "CC(C)Nc1ncccn1", "value_reported": "> 30 µM"}
{"compound": "COc1ccc(C(=O)Nc2ccccc2CCC2CCCCN2C)cc1 (configuration not stated) [ENCAINIDE]", "value_reported": "26.9 µM"}
{"compound": "CCC(CC)(CC(=O)Nc1cccc(/C=C/c2nc(C3CCC3)cs2)c1)C(=O)O", "value_reported": "> 30 µM"}
{"compound": "O=C(CCNNC(=O)c1ccncc1)NCc1ccccc1 [NIALAMIDE]", "value_reported": "> 30 µM"}
{"compound": "Cc1cc(C#N)cc(C)c1Oc1nc(Nc2ccc(C#N)cc2)nc(N)c1Br", "value_reported": "4.53 µM"}
{"compound": "NC(=O)C[C@H](N)C(=O)O", "value_reported": "> 30 µM"}
{"compound": "OB1OCc2cc(F)ccc21", "value_reported": "> 30 µM"}
{"compound": "NC1CCN(c2c(F)cc3c(=O)c(C(=O)O)cn(C4CC4)c3c2Cl)C1 (configuration not stated)", "value_reported": "> 30 µM"}

----------
# target_system: Muscarinic acetylcholine receptor M2 (Homo sapiens); note: assay procedure not described here
# Sequence (P08172 whole entry): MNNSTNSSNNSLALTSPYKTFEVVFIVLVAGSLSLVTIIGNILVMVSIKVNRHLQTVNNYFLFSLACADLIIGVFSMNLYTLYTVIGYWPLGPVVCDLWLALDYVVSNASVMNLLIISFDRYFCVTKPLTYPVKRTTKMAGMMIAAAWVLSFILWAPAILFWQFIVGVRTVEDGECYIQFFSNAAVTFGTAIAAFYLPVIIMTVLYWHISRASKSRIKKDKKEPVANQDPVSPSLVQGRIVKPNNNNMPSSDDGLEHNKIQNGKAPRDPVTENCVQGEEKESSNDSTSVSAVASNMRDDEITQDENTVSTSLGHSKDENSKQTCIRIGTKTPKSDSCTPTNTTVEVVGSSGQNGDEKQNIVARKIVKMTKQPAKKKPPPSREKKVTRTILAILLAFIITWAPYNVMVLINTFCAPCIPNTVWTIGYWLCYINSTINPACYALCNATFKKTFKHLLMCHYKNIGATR
# Format: functional, cell-based
recorded_metric: AC50

{"compound": "CN1C(=O)OC(C)(C)C1=O", "value_reported": "> 10 µM"}
{"compound": "CC(C(=O)O)c1ccc(N2Cc3ccccc3C2=O)cc1 (stereo not given)", "value_reported": "> 30 µM"}
{"compound": "Nc1nc(N)nc(-c2cc(Cl)ccc2Cl)n1", "value_reported": "> 30 µM"}
{"compound": "C=CCC1(C(C)CC)C(=O)NC(=O)NC1=O (stereo not given)", "value_reported": "> 10 µM"}
{"compound": "CNC(=O)c1ccccc1Sc1ccc2c(/C=C/c3ccccn3)n[nH]c2c1", "value_reported": "> 30 µM"}
